- target under test: Cyclin-dependent kinase 19 (Homo sapiens)
- protocol notes: Inhibition of CDK11 in human NCI-H929 cells at 10 uM by mass spectroscopic analysis relative to control
- Type: cell-based
observation type: inhibition (%)
One number for each entry, in %.

The examples below pair each entry with its known result.
1. Nc1ncc(-c2ccc(NS(=O)(=O)C3CC3)cc2OC2CCCCC2)cc1-c1ccc2c(c1)CCNC2=O = 0
2. Nc1ncc(-c2ccc(NS(=O)(=O)C3CC3)cc2F)cc1-c1ccc2c(c1)CCNC2=O = 0
3. CN(C1CC1)S(=O)(=O)c1ccc(-c2cnc(N)c(-c3ccc4c(c3)CCNC4=O)c2)c(F)c1 = 0

Proceed to the following item.
Exercise: Form entry - test system: Cyclin-dependent kinase 19 (Homo sapiens); read-out: inhibition; compound: "Nc1ncc(-c2cccc3ncsc23)cc1-c1ccc2c(c1)CCNC2=O"
Key: 50

###

Record form. Attribute: inhibition. Fill in for each entry.
- target under test: Serine/threonine-protein kinase 26 (Homo sapiens) (UniProt Q9P289)
- Sequence (Q9P289 2-416 limits assumed): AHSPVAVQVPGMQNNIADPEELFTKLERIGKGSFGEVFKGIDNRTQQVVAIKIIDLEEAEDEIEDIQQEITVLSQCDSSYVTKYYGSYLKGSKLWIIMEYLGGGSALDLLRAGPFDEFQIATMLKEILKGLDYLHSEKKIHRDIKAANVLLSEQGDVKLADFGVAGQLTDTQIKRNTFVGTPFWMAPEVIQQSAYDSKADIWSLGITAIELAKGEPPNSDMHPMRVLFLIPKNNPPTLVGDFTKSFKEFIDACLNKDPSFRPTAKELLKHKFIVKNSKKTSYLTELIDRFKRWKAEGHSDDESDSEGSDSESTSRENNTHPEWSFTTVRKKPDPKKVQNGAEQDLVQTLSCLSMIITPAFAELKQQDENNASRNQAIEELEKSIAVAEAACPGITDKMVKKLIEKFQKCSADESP
- protocol notes: Inhibition of MST4 in human NCI-H929 cells at 10 uM by mass spectroscopic analysis relative to control
- Type: cell-based
Numbers only, in %.

1) Nc1ncc(-c2cccc([N+](=O)[O-])c2F)cc1-c1ccc2c(c1)CCNC2=O = 0

Exercise: Can you share its inhibition? I mean this compound: "Nc1ncc(-c2cccc3ncsc23)cc1-c1ccc2c(c1)CCNC2=O"
Key: 0

###

- target under test: Mitogen-activated protein kinase 10 (Homo sapiens)
- protocol notes: Inhibition of JNK3 in human NCI-H929 cells at 10 uM by mass spectroscopic analysis relative to control
- Format: cell-based
observation type: inhibition
Mention the unit after the number when you answer.

1) Nc1ncc(-c2cccc3ncsc23)cc1-c1ccc2c(c1)CCNC2=O = 0%

Fill in inhibition for each of the 5 compounds listed.
1. COc1cc(NS(=O)(=O)C2CC2)ccc1-c1cnc(N)c(-c2ccc3c(c2)CCNC3=O)c1
2. Nc1ncc(-c2cccc([N+](=O)[O-])c2F)cc1-c1ccc2c(c1)CCNC2=O
3. Nc1ncc(-c2ccc(NS(=O)(=O)C3CC3)cc2OC2CCCCC2)cc1-c1ccc2c(c1)CCNC2=O
4. CN(C1CC1)S(=O)(=O)c1ccc(-c2cnc(N)c(-c3ccc4c(c3)CCNC4=O)c2)c(F)c1
5. Nc1ncc(-c2ccc(NS(=O)(=O)C3CC3)cc2F)cc1-c1ccc2c(c1)CCNC2=O

Key:
1: 75%; 2: 0%; 3: 0%; 4: 0%; 5: 0%

###

Provide the recorded inhibition for the entries that follow.
- target under test: DNA-dependent protein kinase catalytic subunit (Homo sapiens)
- protocol notes: Inhibition of DNAPK in human NCI-H929 cells at 10 uM by mass spectroscopic analysis relative to control
- Format: cell-based

1. CN(C1CC1)S(=O)(=O)c1ccc(-c2cnc(N)c(-c3ccc4c(c3)CCNC4=O)c2)c(F)c1 = < 90%
2. Nc1ncc(-c2ccc(NS(=O)(=O)C3CC3)cc2F)cc1-c1ccc2c(c1)CCNC2=O = 0%
3. Nc1ncc(-c2cccc3ncsc23)cc1-c1ccc2c(c1)CCNC2=O = < 75%

From here, focus on the item given below.
Exercise: Query (molecule): "Nc1ncc(-c2ccc(NS(=O)(=O)C3CC3)cc2OC2CCCCC2)cc1-c1ccc2c(c1)CCNC2=O" ; field requested: inhibition
Key: 0%
